Recorded measurements of MIC, one per entry
- Test system: Human alphaherpesvirus 1
- protocol.description: Minimal inhibitory concentration to reduce virus-induced cytopathicity against F strain of human Herpes Simplex Virus-1 (HSV-1)
- Format: functional
- study.conditions: Human alphaherpesvirus 1; read-out: MIC
Lab book: enter the figure in µg/mL, no units written.

Cc1ccc(-c2cn3c(O)c4ncn(COCCO)c4nc3n2)cc1    0.07

Continue with the compound presented below.
// MIC lookup, compound = Cc1c(-c2ccccc2)nc2nc3c(ncn3COC(CO)CO)c(O)n12 , result: 0.005

====

Listed compounds paired with reported MIC
- Test system: Human alphaherpesvirus 1
- protocol.description: Minimal inhibitory concentration to reduce virus-induced cytopathicity against Thymidine kinase deficient(TK-) HSV-1 of Acyclovir
- Assay type: functional
Please give a number only; it is taken to be in mg/L.

Cc1ccc(-c2cn3c(O)c4ncn(COCCO)c4nc3n2)cc1    9.2

Below: the item to evaluate.
Record O=c1[nH]c(=O)n([C@H]2C[C@H](O)[C@@H](CO)O2)cc1/C=C/Br . Reported MIC: 90

====

We begin with a simple list: items and their reported MIC.
- System: Human alphaherpesvirus 1
- protocol.description: Minimal inhibitory concentration to reduce virus-induced cytopathicity against Thymidine kinase deficient(TK-) HSV-1 of Acyclovir
- Type: functional
Field: numeric (µg/mL). Do not append units.

Cc1c(-c2ccccc2)nc2nc3c(ncn3COC(CO)CO)c(O)n12    3.2
OCCOCn1cnc2c(O)n3ccnc3nc21    400
CCc1cn2c(O)c3ncn(COCCO)c3nc2n1    240
Cc1c(-c2ccccc2)nc2nc3c(ncn3COCCO)c(O)n12    3.2
OCCOCn1cnc2c(O)n3cc(-c4ccc5ccccc5c4)nc3nc21    16

Okay, now this compound:
Short answer for OCC(CO)OCn1cnc2c(O)n3ccnc3nc21 : MIC was 400

====

- System: Human alphaherpesvirus 1
- protocol.description: Minimal inhibitory concentration to reduce virus-induced cytopathicity against McIntyre strain of human Herpes Simplex Virus-1
- Type: functional
test.readout: MIC

Worked examples, 2 molecules total:
OCCOCn1cnc2c(O)n3c(C(c4ccccc4)(c4ccccc4)c4ccccc4)cnc3nc21    > 16 µg/mL
OCCOCn1cnc2c(O)n3c(-c4ccc(C(c5ccccc5)c5ccccc5)cc4)c(-c4ccccc4)nc3nc21    > 16 µg/mL

Now take the following molecule into account.
Item: COc1ccc(-c2nc3nc4c(ncn4COCCO)c(O)n3c2-c2ccc(C(c3ccccc3)c3ccccc3)cc2)cc1 | MIC: > 16 µg/mL

====

The following compounds are listed with their measured MIC values.
- System: Human alphaherpesvirus 1
- protocol.description: Minimal inhibitory concentration to reduce virus-induced cytopathicity against F strain of human Herpes Simplex Virus-1 (HSV-1)
- Format: functional
- study.conditions: Human alphaherpesvirus 1; read-out: MIC

Please review the following examples before continuing.
OCCOCn1cnc2c(O)n3c(-c4ccc(C(c5ccccc5)c5ccccc5)cc4)c(-c4ccccc4)nc3nc21    > 16 µg/mL
OCCOCn1cnc2c(O)n3c(C(c4ccccc4)(c4ccccc4)c4ccccc4)cnc3nc21    > 16 µg/mL

// sample CC(=O)OCCOCn1cnc2c(O)n3cc(-c4ccc5ccccc5c4)nc3nc21 , its MIC was > 16 µg/mL

MIC in this record for OCCOCn1cnc2c(O)n3c(CO)cnc3nc21 : > 3.2 µg/mL
